Hey, just so you know, these numbers are from patent EP4039268A1.

# Study Target: T1, monomeric SARS-CoV-2 receptor binding domain (RBD-H6) (SARS-CoV-2, UniProt P0DTC2 319-541)
# T1 construct: Made in HEK293-6E cells; also called RBD Spike; monomeric RBD
# Test Name: ELISA screen
Measured Endpoint: Mean normalized OD (OD)
Report the figure in OD without appending any unit label.

Problem: Item Pla2r1_7 CRD-mouse IgG2a-Fc fusion protein (Fc fusion) YGNRTYKIIRGNMTWYAAGKSCRMHRAELASIPDAFHQAFLTVLLSRLGHTHWIGLSTTDNGQTFDWSDGTKSPFTYWKDEESAFLGDCAFADTNGRWHSTACESFLQGAICGGGSGGGSGGGS : provide Mean normalized OD
Result: 0

Problem: Item Clec1a CRD-mouse IgG2a-Fc fusion protein (Fc fusion) YGDKCYQFYKESKNWQSCEYFCLADNATMLKISTQEELDFAMPQSYSEFFYSYWTGLSRNGSGKAWLWTDGTPYSFELFEIIIDPTNLRNRDCMTIFNGKAYSKDCKELRRCACEGGGSGGGSGGGS : provide Mean normalized OD
Result: 0.01

Problem: Item Pla2r1_5 CRD-mouse IgG2a-Fc fusion protein (Fc fusion) YQNAEYLFHTHPAEWATFEFVCGWLRSDFLTIYSAQEQEFIHSKIKGLTKYGVKWWIGLEEGGARDQIQWSNGSPVIFQNWDKGREERVDSQRKRCVFISSITGLWGTENCSVPLPSICKGGGSGGGSGGGS : provide Mean normalized OD
Result: 0.036

Problem: Item Lgals9_2 CRD-mouse IgG2a-Fc fusion protein (Fc fusion) FYTPIPNGLYPSKSIMISGNVLPDATRFHINLRCGGDIAFHLNPRFNENAVVRNTQINNSWGQEERSLLGRMPFSRGQSFSVWIICEGHCFKVAVNGQHMCEYYHRLKNLQDINTLEVAGDIQLTHVQTGGGSGGGSGGGS : provide Mean normalized OD
Result: 0.033

Problem: Item Klrd1 CRD-mouse IgG2a-Fc fusion protein (Fc fusion) HQCNCYFISKEEKSWKRSRDFCASQNSSLLQPQSRNELSFMNFSQTFFWIGMHYSEKRNAWLWEDGTVPSKDLFPEFSVIRPEHCIVYSPSKSVSAESCENKNRYICKGGGSGGGSGGGS : provide Mean normalized OD
Result: 0.004

Problem: Item Grifin CRD-mouse IgG2a-Fc fusion protein (Fc fusion) FEAFCAGGLAPGWSLTVQGHADAGEEKFEINFLTDAGDIAFHVKPRFSSATVVGNAFQGGRWGQEEVSSIFPLTLGEPFEMEVSADAEHFHIYAQEQKVLQFPHRHRPLATITRVRVLSEHRLAQVELAGGGSGGGSGGGS : provide Mean normalized OD
Result: 0

Problem: Item Mrc1_8 CRD-mouse IgG2a-Fc fusion protein (Fc fusion) FYGHCYYFESSFTRSWGQASLECLRMGASLVSIETAAESSFLSYRVEPLKSKTNFWIGMFRNVEGKWLWLNDNPVSFVNWKTGDPSGERNDCVVLASSSGLWNNIHCSSYKGFICKGGGSGGGSGGGS : provide Mean normalized OD
Result: 0.019
